# System Tested: Sodium-dependent dopamine transporter (Rattus norvegicus)
# Sequence (P23977 whole entry): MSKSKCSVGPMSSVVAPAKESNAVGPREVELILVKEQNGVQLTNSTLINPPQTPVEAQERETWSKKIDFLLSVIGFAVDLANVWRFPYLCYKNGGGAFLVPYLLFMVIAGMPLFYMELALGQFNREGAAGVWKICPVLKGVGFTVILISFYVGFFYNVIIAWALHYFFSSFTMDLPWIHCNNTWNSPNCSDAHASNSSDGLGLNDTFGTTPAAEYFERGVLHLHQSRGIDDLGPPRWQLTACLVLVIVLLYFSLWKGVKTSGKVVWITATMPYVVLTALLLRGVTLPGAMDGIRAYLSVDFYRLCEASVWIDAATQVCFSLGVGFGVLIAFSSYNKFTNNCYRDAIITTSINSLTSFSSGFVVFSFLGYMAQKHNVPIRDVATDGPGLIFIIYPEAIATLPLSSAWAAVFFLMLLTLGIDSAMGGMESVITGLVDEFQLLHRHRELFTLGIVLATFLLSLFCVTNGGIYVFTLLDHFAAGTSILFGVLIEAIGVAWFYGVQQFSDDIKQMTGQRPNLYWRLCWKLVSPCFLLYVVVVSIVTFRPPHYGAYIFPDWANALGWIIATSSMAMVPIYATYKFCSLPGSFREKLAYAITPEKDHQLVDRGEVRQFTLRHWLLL
Measured Ki, listed per entry.
Observed Property: Ki

In [3]: df
Out[3]:
                                    compound  observed
 0  CNC(=O)C[S+]([O-])C(c1ccc(Br)cc1)c1ccc(Br)cc1 (racemic)   1650 nM
 1  CNC(=O)C[S+]([O-])C(c1ccc(Cl)cc1)c1ccc(Cl)cc1 (racemic)   2440 nM
 2           CN(C)C(=O)CSC(c1ccccc1)c1ccccc1  16500 nM
 3  NC(=O)C[S+]([O-])C(c1ccc(Br)cc1)c1ccc(Br)cc1 (racemic)    600 nM
 4  CN(C)C(=O)C[S+]([O-])C(c1ccc(Cl)cc1)c1ccc(Cl)cc1 (racemic)  34600 nM
 5  CN(C)C(=O)C[S+]([O-])C(c1ccc(Br)cc1)c1ccc(Br)cc1 (racemic)  21300 nM
 6  NC(=O)C[S+]([O-])C(c1ccc(F)cc1)c1ccc(F)cc1 (racemic)   2190 nM
 7  O=C(C[S+]([O-])C(c1ccccc1)c1ccccc1)NCCCc1ccccc1 (racemic)   2660 nM
 8       NC(=O)CSC(c1ccc(Cl)cc1)c1ccc(Cl)cc1   2230 nM
 9         NC(=O)CSC(c1ccc(F)cc1)c1ccc(F)cc1   1570 nM
10       NC(=O)CSC(c1ccc(Br)cc1)c1ccc(Br)cc1   1930 nM
11     CN(C)C(=O)CSC(c1ccc(F)cc1)c1ccc(F)cc1   9510 nM
12  CN(C)CC[S+]([O-])C(c1ccc(Cl)cc1)c1ccc(Cl)cc1 (racemic)   2890 nM
13   CN(C)C(=O)CSC(c1ccc(Br)cc1)c1ccc(Br)cc1   2450 nM
14   CN(C)C(=O)CSC(c1ccc(Cl)cc1)c1ccc(Cl)cc1   4510 nM

====

# System Tested: Sodium-dependent serotonin transporter (Rattus norvegicus, UniProt P31652)
# Sequence (P31652 whole entry): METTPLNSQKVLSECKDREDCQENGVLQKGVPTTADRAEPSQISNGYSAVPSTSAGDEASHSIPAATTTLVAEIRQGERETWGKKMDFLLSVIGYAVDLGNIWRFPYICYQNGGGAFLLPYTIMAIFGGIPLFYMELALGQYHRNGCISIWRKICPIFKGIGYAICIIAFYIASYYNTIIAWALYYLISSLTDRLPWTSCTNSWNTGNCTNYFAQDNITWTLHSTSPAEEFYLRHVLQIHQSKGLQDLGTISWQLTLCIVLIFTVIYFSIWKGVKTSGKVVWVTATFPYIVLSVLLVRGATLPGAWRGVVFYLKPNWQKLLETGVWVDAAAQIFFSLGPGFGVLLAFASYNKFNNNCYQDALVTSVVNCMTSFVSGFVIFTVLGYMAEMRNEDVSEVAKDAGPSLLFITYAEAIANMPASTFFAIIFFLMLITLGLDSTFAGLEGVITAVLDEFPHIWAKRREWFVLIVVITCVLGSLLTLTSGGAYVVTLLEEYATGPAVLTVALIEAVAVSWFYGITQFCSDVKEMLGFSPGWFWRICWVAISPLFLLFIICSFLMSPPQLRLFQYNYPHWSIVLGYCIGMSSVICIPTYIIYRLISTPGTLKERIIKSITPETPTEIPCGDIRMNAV
We'd kindly ask you to apply these Ki classes: low-valued: < 10 µM; mid-valued: ≥ 10 µM and < 30 µM; high-valued: ≥ 30 µM

>>> print(df.to_string())
                                   compound     category
0  CN(C)CC[S+]([O-])C(c1ccc(Cl)cc1)c1ccc(Cl)cc1 (racemic)   low-valued
1   CN(C)C(=O)CSC(c1ccc(Br)cc1)c1ccc(Br)cc1   low-valued
2  NC(=O)C[S+]([O-])C(c1ccc(Cl)cc1)c1ccc(Cl)cc1 (racemic)  high-valued
3  NC(=O)C[S+]([O-])C(c1ccc(Br)cc1)c1ccc(Br)cc1 (racemic)   mid-valued
4  CN(C)CC[S+]([O-])C(c1ccccc1)c1ccccc1 (racemic)  high-valued
5  CN(C)C(=O)C[S+]([O-])C(c1ccc(F)cc1)c1ccc(F)cc1 (racemic)   mid-valued
6  CNC(=O)C[S+]([O-])C(c1ccc(Br)cc1)c1ccc(Br)cc1 (racemic)  high-valued
7       NC(=O)CSC(c1ccc(Br)cc1)c1ccc(Br)cc1   low-valued
8       NC(=O)CSC(c1ccc(Cl)cc1)c1ccc(Cl)cc1   mid-valued
9     CN(C)C(=O)CSC(c1ccc(F)cc1)c1ccc(F)cc1   mid-valued

====

# System Tested: Transporter (Rattus norvegicus)
# Assay Remarks: Displacement of [3H]nisoxetine from NET in Sprague-Dawley rat brain membranes at 10 uM
# Type: cell membranes
# Measurement Setup: Membrane
Activity calls are given as the source filed them. No cut-off for these calls is given here.
Observed Property: inhibition

                                   compound  observed_property  observed
0  NC(=O)C[S+]([O-])C(c1ccc(Br)cc1)c1ccc(Br)cc1 (racemic)         inhibition  inactive
1  NC(=O)C[S+]([O-])C(c1ccc(F)cc1)c1ccc(F)cc1 (racemic)         inhibition  inactive
2  CN(C)C(=O)C[S+]([O-])C(c1ccc(Br)cc1)c1ccc(Br)cc1 (racemic)         inhibition  inactive
3           CN(C)C(=O)CSC(c1ccccc1)c1ccccc1         inhibition  inactive
4  CN(C)C(=O)C[S+]([O-])C(c1ccccc1)c1ccccc1 (racemic)         inhibition  inactive

====

# System Tested: Sodium-dependent serotonin transporter (Rattus norvegicus, UniProt P31652)
# Assay Remarks: Displacement of [3H]citalopram from SERT in Sprague-Dawley rat brain membranes
# Format: cell membranes, Membrane
Observed Property: Ki (µM)

>>> print(df.to_string())
                                   compound                             system_tested  observed
0  CN(C)C(=O)C[S+]([O-])C(c1ccc(Cl)cc1)c1ccc(Cl)cc1 (racemic)  Sodium-dependent serotonin transporter (Rattus norvegicus, UniProt P31652)      22.3
1   CN(C)C(=O)CSC(c1ccc(Cl)cc1)c1ccc(Cl)cc1  Sodium-dependent serotonin transporter (Rattus norvegicus, UniProt P31652)      5.98
2  CN(C)C(=O)C[S+]([O-])C(c1ccc(Br)cc1)c1ccc(Br)cc1 (racemic)  Sodium-dependent serotonin transporter (Rattus norvegicus, UniProt P31652)      14.2
